pIC50 overview
- System: ATXN3 transcripts containing exon 4
- ASSAY PROCEDURE: ATXN3 quantitative splicing assay (qPCR, E4E5 transcripts containing exon 4)
- Type: cell-based
- CONDITION LABEL: Human neuroblastoma SK-N-MC cells, 24 h treatment, qPCR primers/probe E4E5
pIC50: −log10 of the molar value.

# example entries with known answers
C[C@H](F)[C@H](N)Cc1sc2c(NCc3sccc3F)snc2c1Br 5.30 to 6.30
C[C@H](N)Cc1sc2c(NCc3cccs3)snc2c1C#N 5.30 to 6.30
N[C@H](Cc1sc2c(NCc3ccco3)snc2c1Cl)CC1CC1 6.30 to 7.00
Cc1c(C[C@H](C)N)sc2c(NCc3cccs3)snc12 5.30 to 6.30

Please examine the following record next.
Challenge: Report pIC50 for N[C@@H](CF)Cc1sc2c(NCc3nccs3)snc2c1Br
Response given: 5.30 to 6.30
